# Target Of Assay: 5-HT2A (Homo sapiens, UniProt P28223)
# Sequence (P28223 whole entry): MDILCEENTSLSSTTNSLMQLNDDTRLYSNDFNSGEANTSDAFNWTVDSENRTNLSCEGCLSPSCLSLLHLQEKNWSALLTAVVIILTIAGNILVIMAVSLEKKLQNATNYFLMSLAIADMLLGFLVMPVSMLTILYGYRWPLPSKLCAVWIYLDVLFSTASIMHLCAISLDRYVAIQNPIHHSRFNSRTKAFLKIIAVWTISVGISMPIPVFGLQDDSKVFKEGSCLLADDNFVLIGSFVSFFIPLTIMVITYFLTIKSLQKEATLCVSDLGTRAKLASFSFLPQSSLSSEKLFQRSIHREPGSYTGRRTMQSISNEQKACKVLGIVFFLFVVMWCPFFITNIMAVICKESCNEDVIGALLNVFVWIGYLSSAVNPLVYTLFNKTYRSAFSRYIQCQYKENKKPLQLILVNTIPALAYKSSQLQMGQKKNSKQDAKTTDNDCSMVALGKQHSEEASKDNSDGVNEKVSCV
# Test Description: Ca2+ flux assay, 5-HT2A
# Format: cell-based
# Set-up: expressed in transfected cells
# Condition Details: read-out: 5-HT2A Emax % 5-HT, Ca2+ flux
Property Measured: Emax (%)

>>> readout_value("COc1cc([N+](=O)[O-])c(OC)cc1CCNCc1ccccc1F [25N-NBF (7)]")
84
>>> readout_value("COc1cc([N+](=O)[O-])c(OC)cc1CCNCc1cccc(F)c1 [25N-NB-3-F (24)]")
85
>>> readout_value("COc1cc([N+](=O)[O-])c(OC)cc1CCNCc1cccc(O)c1 [25N-NB-3-OH (21)]")
55
>>> readout_value("COc1cc([N+](=O)[O-])c(OC)cc1CCNCc1ccc(F)cc1 [25N-NB-4-F (25)]")
48
>>> readout_value("COc1cc([N+](=O)[O-])c(OC)cc1CCNCc1ccc(C)cc1 [25N-NB-4-Me (23)]")
42
>>> readout_value("COc1cc([N+](=O)[O-])c(OC)cc1CCNCc1cccc(F)c1OC [25N-NB-2-MeO-3-F (19)]")
83
>>> readout_value("COc1cc([N+](=O)[O-])c(OC)cc1CCNCc1cccc(C)c1O [25N-NB-2-OH-3-Me (18)]")
55
>>> readout_value("COc1cc([N+](=O)[O-])c(OC)cc1CCNCc1cccc2c1OC(F)(F)O2 [25N-NBMDF2 (13)]")
86
>>> readout_value("COc1cc([N+](=O)[O-])c(OC)cc1CCNCc1ccccc1Cl [25N-NBCl (8)]")
80
>>> readout_value("COc1cc([N+](=O)[O-])c(OC)cc1CCNCc1ccccc1Br [25N-NBBr (9)]")
79
>>> readout_value("COc1cc([N+](=O)[O-])c(OC)cc1CCNCc1ccccc1I [25N-NBI (10)]")
88
>>> readout_value("COc1cc([N+](=O)[O-])c(OC)cc1CCNCc1cccc(C)c1 [25N-NB-3-Me (22)]")
54
>>> readout_value("COc1cc([N+](=O)[O-])c(OC)cc1CCNCc1ccccc1O [25N-NBOH (3)]")
87
>>> readout_value("COc1cc([N+](=O)[O-])c(OC)cc1CCNCc1ccccc1OC [25N-NBOMe (4)]")
94
>>> readout_value("CCOc1ccccc1CNCCc1cc(OC)c([N+](=O)[O-])cc1OC [25N-NBOEt (5)]")
87
